This section presents molecules with their documented growth values.
Tested on: HL-60(TB) leukemia
method_summary: NCI-60 one-dose screen, 48 h (100 = growth as untreated, 0 = no growth, -100 = all killed)
condition_summary: 10 µM unless noted
The panel holds about 83,000 compounds, 20% with a hit somewhere; the sample as a whole holds those more often.

# mol_smiles, growth (%)
records = [
    ("COc1cc2c(cc1OCCCCCn1c(-c3ccco3)nc3ccccc31)N=C[C@@H]1CCCN1C2=O", -27.4),
    ("ClC1=C(Cl)C(Cl)(C2(Cl)C(Cl)=C(Cl)C(Cl)=C2Cl)C(Cl)=C1Cl", -36.3),
    ("COc1ccc(O)c(CNC(=O)CN2CCCC2=O)c1", 142),
    ("O=C1NC(=O)C(=Cc2ccc(OCCCCC3CCCCC3)c(Cl)c2)C(=O)N1", 92.8),
    ("C/C(Cc1ccc(Cl)cc1)=C(\\c1ccc(OCCN2CCOCC2)cc1)c1ccc(OC(=O)Cc2ccccc2)cc1", 100),
]

These data points were gathered from PubChem BioAssay (NCI).
